Measured nuclei count accompanies every entry in the list below.
Assay: endothelial E-selectin expression blockers – imaging, HUVEC, immunofluorescence, MLSMR starter and 10KST1 sets, primary screen (AID 487);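 also: 100% = median nuclei count of all wells on the same plate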
Settings: HUVEC TNFalpha-induced E-selectin immunofluorescence imaging, at 2 µM; measured here: cell number, toxicity
endpoint: nuclei count (%)

compound=C/C(N)=C(\C#N)C(=O)NCCc1ccccn1 endpoint="nuclei count" quantitative_readout=102
compound=COc1ccccc1CNS(=O)(=O)c1cccc(S(=O)(=O)N2CCOCC2)c1 endpoint="nuclei count" quantitative_readout=117
compound=O=C(Nc1ccc2c(c1)OCO2)c1ccc(Br)c(S(=O)(=O)N2CCCC2)c1 endpoint="nuclei count" quantitative_readout=90.4
compound="CCOc1ccc(N(CC(=O)NCC2CCCO2)S(=O)(=O)c2ccc(OC)c(OC)c2)cc1 (stereo not drawn)" endpoint="nuclei count" quantitative_readout=112
compound=Cc1cc(NC(=O)c2ccc3nc(-c4ccccc4)c(-c4ccccc4)nc3c2)no1 endpoint="nuclei count" quantitative_readout=106
compound=CCCc1nc2ccccc2c(=O)n1NC(=O)c1c(O)c2cccc3c2n(c1=O)CCC3 endpoint="nuclei count" quantitative_readout=120
compound="CCN(CC)C(=O)C1=C(C)NC(=O)NC1c1c(F)cccc1Cl (stereo not drawn)" endpoint="nuclei count" quantitative_readout=122
compound="CC(C)Oc1ccc(C2C(C(=O)c3ccco3)=C(O)C(=O)N2CCCN(C)C)cc1 (stereo not drawn)" endpoint="nuclei count" quantitative_readout=112
compound=O=c1c(O)c(-c2ccc(O)cc2O)oc2cc(O)cc(O)c12 endpoint="nuclei count" quantitative_readout=114
compound=Cn1c(Cc2csc(N)n2)nnc1SCC(=O)NC1CCCCC1 endpoint="nuclei count" quantitative_readout=91
compound=Cc1ccc(N2CCN(C(=O)c3ccccc3Br)CC2)c(C)c1 endpoint="nuclei count" quantitative_readout=101
compound="CC(NC(=O)c1ccccc1NC(=O)c1ccco1)C(=O)O (stereo not drawn)" endpoint="nuclei count" quantitative_readout=121
compound=C[C@H]1C[C@H]2[C@@H]3CCC4=CC(=O)C=C[C@]4(C)[C@@]3(Cl)[C@@H](O)C[C@]2(C)[C@@]1(O)C(=O)CO endpoint="nuclei count" quantitative_readout=113
compound=COC(=O)Nc1ccc(S(=O)(=O)N2CCN(c3ccc(F)cc3)CC2)cc1 endpoint="nuclei count" quantitative_readout=123
compound="O=C1C2CCCN2C(c2ccc(Cl)cc2)N1c1nccs1 (stereo not drawn)" endpoint="nuclei count" quantitative_readout=92.8
compound=CC(C)(C)NC(=O)Cn1nnc(-c2cccs2)n1 endpoint="nuclei count" quantitative_readout=85.2
compound=CC(C)CCn1c(SCC#N)nc2c(sc3ccccc32)c1=O endpoint="nuclei count" quantitative_readout=119
compound=N#CC(C(=O)Nc1ccccc1)=C1CCCCC1 endpoint="nuclei count" quantitative_readout=131
compound=Cc1cc2oc(=O)cc(CN3CCN(Cc4ccc5c(c4)OCO5)CC3)c2cc1C endpoint="nuclei count" quantitative_readout=108
compound=Cc1ccc(NS(=O)(=O)c2cn(C)cn2)cc1 endpoint="nuclei count" quantitative_readout=107
compound=COc1ccc2c(C(=O)CN(C)C3CCCCC3)c[nH]c2c1 endpoint="nuclei count" quantitative_readout=96.7
compound=COCCn1c(SCC(=O)Nc2nnc(C)s2)nnc1-c1ccncc1 endpoint="nuclei count" quantitative_readout=115
compound=CCSc1nnc(NC(=O)c2ccc(C)o2)s1 endpoint="nuclei count" quantitative_readout=96.3
